Assignment: determine reported Transfection efficiency (percentage of transfected cells), HEK293 for the given compounds.
# Tested on: HEK293 cells
# test details: Transfection of pEGFP-C1 reporter plasmid into HEK293 cells, GFP expression by flow cytometry
# Assay type: cell-based, human
Answers are plain numbers, in %.

# example entries with known answers
CCCCCCCCCCCCCCCC(=O)NCCN(CCNC(=O)CCCCCCCCCCCCCCC)C(=O)CCC(=O)N[C@@H](CCCNC(=N)N)C(=O)N[C@@H](CCCNC(=N)N)C(=O)N[C@@H](CCCNC(=N)N)C(N)=O.O=C(O)C(F)(F)F.O=C(O)C(F)(F)F.O=C(O)C(F)(F)F [Compound A3-Sp1-P] : 84
CCCCCCCCCCCCCCCC(=O)NCCN(CCNC(=O)CCCCCCCCCCCCCCC)C(=O)/C=C\C(=O)N[C@@H](CCCNC(=N)N)C(=O)N[C@@H](CCCNC(=N)N)C(=O)N[C@@H](CCCNC(=N)N)C(N)=O.O=C(O)C(F)(F)F.O=C(O)C(F)(F)F.O=C(O)C(F)(F)F [Compound A3-Sp2-P] : 80
CCCCCCCCCCCCCCCC(=O)NCCN(CCNC(=O)CCCCCCCCCCCCCCC)C(=O)/C=C\C(=O)N[C@@H](CCCNC(=N)N)C(=O)N[C@@H](CCCNC(=N)N)C(N)=O.O=C(O)C(F)(F)F.O=C(O)C(F)(F)F [Compound A2-Sp2-P] : 90

Query: Give the measured Transfection efficiency (percentage of transfected cells), HEK293 for CCCCCCCCCCCCCCCC(=O)NCCN(CCNC(=O)CCCCCCCCCCCCCCC)C(=O)CCC(=O)N[C@@H](CCCNC(=N)N)C(=O)N[C@@H](CCCNC(=N)N)C(N)=O.O=C(O)C(F)(F)F.O=C(O)C(F)(F)F [Compound A2-Sp1-P]
Result: 89
